All figures here come from paper PMC4336329.

# Test Target: human ether-à-go-go-related gene (hERG) potassium channel (human);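 also: peak tail current of the secondary pulse compared with the same well before compound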
# Sequence (Q12809 whole entry, looked up): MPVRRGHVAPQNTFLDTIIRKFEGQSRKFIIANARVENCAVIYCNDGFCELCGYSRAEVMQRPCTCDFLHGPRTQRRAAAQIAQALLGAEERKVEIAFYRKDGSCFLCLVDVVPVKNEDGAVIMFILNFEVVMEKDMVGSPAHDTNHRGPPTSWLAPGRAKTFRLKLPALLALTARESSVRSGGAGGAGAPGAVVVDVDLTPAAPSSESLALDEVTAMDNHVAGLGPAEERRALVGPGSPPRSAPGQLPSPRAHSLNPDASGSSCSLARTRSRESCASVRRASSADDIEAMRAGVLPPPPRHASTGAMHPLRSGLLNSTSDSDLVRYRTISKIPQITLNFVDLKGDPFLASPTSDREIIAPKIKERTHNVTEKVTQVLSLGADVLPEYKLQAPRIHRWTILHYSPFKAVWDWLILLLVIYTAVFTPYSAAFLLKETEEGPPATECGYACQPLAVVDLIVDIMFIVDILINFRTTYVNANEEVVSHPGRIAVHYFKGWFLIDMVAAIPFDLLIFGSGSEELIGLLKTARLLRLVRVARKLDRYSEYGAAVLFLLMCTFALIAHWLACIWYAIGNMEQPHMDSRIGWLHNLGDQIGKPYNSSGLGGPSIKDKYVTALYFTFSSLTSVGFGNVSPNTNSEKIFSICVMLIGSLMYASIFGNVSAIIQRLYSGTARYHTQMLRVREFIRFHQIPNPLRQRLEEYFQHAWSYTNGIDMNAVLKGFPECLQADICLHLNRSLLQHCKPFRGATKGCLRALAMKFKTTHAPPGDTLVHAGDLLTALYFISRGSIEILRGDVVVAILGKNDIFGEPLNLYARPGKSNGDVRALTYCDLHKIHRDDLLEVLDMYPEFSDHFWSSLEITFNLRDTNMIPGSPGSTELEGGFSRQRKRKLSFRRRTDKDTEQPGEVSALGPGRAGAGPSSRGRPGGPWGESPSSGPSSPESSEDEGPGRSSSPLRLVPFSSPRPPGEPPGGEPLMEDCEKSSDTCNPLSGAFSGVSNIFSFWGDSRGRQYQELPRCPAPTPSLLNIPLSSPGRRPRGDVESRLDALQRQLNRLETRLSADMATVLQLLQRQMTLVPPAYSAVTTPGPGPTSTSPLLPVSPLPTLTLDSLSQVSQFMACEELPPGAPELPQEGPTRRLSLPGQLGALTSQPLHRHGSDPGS
# Protocol Description: primary screen, population patch clamp on CHO cells stably expressing hERG; higher = less effect of the substance
The campaign covered roughly 310,000 compounds. About 14,000 (4.5%) showed an effect of 50% or more. Effects have a minus sign here. What follows is part of a selection rich in strong results, with near analogues and random picks from the rest.
Listing of recorded hERG current change (%, negative = inhibition) at 10uM by entry.
Parameter Measured: hERG current change (%, negative = inhibition) at 10uM (%)

[
  {
    "Compound": "O=C(C(Cc1ccccc1)n1cccc1)N1CCCCCC1 (stereo not drawn)",
    "Experimental Result": 12.1
  },
  {
    "Compound": "CC1CCN(c2nc3ccc(C(=O)NCCCN4CCCCC4)cc3s2)CC1",
    "Experimental Result": -50
  },
  {
    "Compound": "O=C(c1ccccc1)c1cccn1CC(=O)N1CCCCCC1",
    "Experimental Result": 5.2
  },
  {
    "Compound": "CC(=O)Nc1sc2c(c1C(c1ccccn1)N1CCN(C)CC1)CCCC2 (stereo not drawn)",
    "Experimental Result": -12.9
  },
  {
    "Compound": "O=C(C(Cc1ccccc1)n1cccc1)N1CCN(C2CCCCC2)CC1 (stereo not drawn)",
    "Experimental Result": -56.6
  },
  {
    "Compound": "COc1ccc(CCC(=O)N2CCN(C(=O)c3ccccc3)CC2)cc1",
    "Experimental Result": 5.76
  },
  {
    "Compound": "CCOc1ccc(C(c2c(NC(=O)c3ccccc3)sc(C)c2C)N2CCN(CCO)CC2)cc1 (stereo not drawn)",
    "Experimental Result": -21.1
  },
  {
    "Compound": "O=C(c1ccccc1)c1cccn1CC(=O)N1CCN(C2CCCCC2)CC1",
    "Experimental Result": -52.6
  },
  {
    "Compound": "C=CCN1C(=O)C(C)(C)Nc2ccccc21",
    "Experimental Result": 6.7
  },
  {
    "Compound": "CCN1CCN(C(c2ccccn2)c2c(NC(=O)c3ccccc3)sc(C)c2C)CC1 (stereo not drawn)",
    "Experimental Result": -59.8
  },
  {
    "Compound": "Cc1sc(NC(=O)c2ccccc2)c(C(c2ccccn2)N2CCN(CCO)CC2)c1C (stereo not drawn)",
    "Experimental Result": -53.7
  },
  {
    "Compound": "CCc1cc(C(c2ccccn2)N2CCN(C)CC2)c(NC(=O)c2ccccc2)s1 (stereo not drawn)",
    "Experimental Result": -59.1
  },
  {
    "Compound": "O=C(CCCc1ccccc1)N1CCN(C2CCCCC2)CC1",
    "Experimental Result": -70.8
  },
  {
    "Compound": "O=C(Cc1ccccc1)N1CCN(C2CCCC2)CC1",
    "Experimental Result": 0.401
  },
  {
    "Compound": "COc1cccc(C(c2c(NC(=O)c3ccccc3)sc(C)c2C)N2CCN(C)CC2)c1 (stereo not drawn)",
    "Experimental Result": -17.6
  },
  {
    "Compound": "CCCNC(=O)Cc1c(C)n(C(=O)c2ccc(Cl)cc2)c2ccc(OC)cc12",
    "Experimental Result": 14.6
  },
  {
    "Compound": "CCn1cc(/C=C(\\NC(=O)c2ccccc2Cl)C(=O)N2CCOCC2)c2ccccc21",
    "Experimental Result": -2.35
  },
  {
    "Compound": "COc1ccc(CCC(=O)N2CCCC(Nc3ccc(OC)cc3)C2)cc1 (stereo not drawn)",
    "Experimental Result": -6.96
  },
  {
    "Compound": "CCc1cc(C(c2ccccc2OC)N2CCOCC2)c(NC(=O)c2ccccc2)s1 (stereo not drawn)",
    "Experimental Result": 21.3
  },
  {
    "Compound": "O=C(C(Cc1ccccc1)n1cccc1)N1CCCCC1 (stereo not drawn)",
    "Experimental Result": 2.03
  },
  {
    "Compound": "CCc1cc(C(c2ccncc2)N2CCN(C)CC2)c(NC(=O)c2ccccc2)s1 (stereo not drawn)",
    "Experimental Result": -40.2
  }
]
